- protocolDescription: Single-dose clinical study: pharmacokinetics, noncompartmental analysis
- Type: in vivo, human
- conditionInfo: human, plasma; across the dose range 5-60 mg single IV bolus; read-out: geometric mean terminal elimination half-life

# smi, half-life
records = [
    ("CC(=O)N[C@H](CSSC[C@H](N)C(=O)O)C(=O)N[C@H](C)C(=O)N[C@H](CCCNC(=N)N)C(=O)N[C@H](CCCNC(=N)N)C(=O)N[C@H](CCCNC(=N)N)C(=O)N[C@H](C)C(=O)N[C@H](CCCNC(=N)N)C(N)=O", "81.7 to 175 h"),
]

---

- protocolDescription: Single-dose clinical study: pharmacokinetics, noncompartmental analysis
- Type: in vivo, human
- conditionInfo: human, plasma; Cohort 3, 20 mg single IV bolus, hemodialysis subjects, geometric mean; read-out: T½ (converted)

# smi, readoutUnits, half-life
records = [
    ("CC(=O)N[C@H](CSSC[C@H](N)C(=O)O)C(=O)N[C@H](C)C(=O)N[C@H](CCCNC(=N)N)C(=O)N[C@H](CCCNC(=N)N)C(=O)N[C@H](CCCNC(=N)N)C(=O)N[C@H](C)C(=O)N[C@H](CCCNC(=N)N)C(N)=O", "h", 175),
]

---

- protocolDescription: Single-dose clinical study: pharmacokinetics, noncompartmental analysis
- Format: in vivo, human
- conditionInfo: human, plasma; Cohort 1, 5 mg single IV bolus, hemodialysis subjects, geometric mean
property: Cmax (ng/mL)

# smi, property, readoutUnits, assayValue
records = [
    ("CC(=O)N[C@H](CSSC[C@H](N)C(=O)O)C(=O)N[C@H](C)C(=O)N[C@H](CCCNC(=N)N)C(=O)N[C@H](CCCNC(=N)N)C(=O)N[C@H](CCCNC(=N)N)C(=O)N[C@H](C)C(=O)N[C@H](CCCNC(=N)N)C(N)=O", "Cmax", "ng/mL", 133),
]

---

- protocolDescription: Single-dose clinical study: pharmacokinetics, noncompartmental analysis
- Type: in vivo, human
- conditionInfo: human, plasma; Cohort 3, 20 mg single IV bolus, hemodialysis subjects, geometric mean
property: Cmax

# compound, assayValue
measured = [
    ("CC(=O)N[C@H](CSSC[C@H](N)C(=O)O)C(=O)N[C@H](C)C(=O)N[C@H](CCCNC(=N)N)C(=O)N[C@H](CCCNC(=N)N)C(=O)N[C@H](CCCNC(=N)N)C(=O)N[C@H](C)C(=O)N[C@H](CCCNC(=N)N)C(N)=O [Ac-c(C)arrrar-NH2]", "0.479 µg/mL"),
]

---

- protocolDescription: Single-dose clinical study: pharmacokinetics, noncompartmental analysis
- Assay type: in vivo, human
- conditionInfo: human, plasma; Cohort 5, 60 mg single IV bolus, hemodialysis subjects, geometric mean; read-out: Vss
property: Vd (L)

# molecule, assayValue
rows = [
    ("CC(=O)N[C@H](CSSC[C@H](N)C(=O)O)C(=O)N[C@H](C)C(=O)N[C@H](CCCNC(=N)N)C(=O)N[C@H](CCCNC(=N)N)C(=O)N[C@H](CCCNC(=N)N)C(=O)N[C@H](C)C(=O)N[C@H](CCCNC(=N)N)C(N)=O [Ac-c(C)arrrar-NH2]", 232),
]

---

- protocolDescription: Single-dose clinical study: pharmacokinetics, noncompartmental analysis
- Type: in vivo, human
- conditionInfo: human, plasma; Cohort 2, 10 mg single IV bolus, hemodialysis subjects, geometric mean
- Method: A clinical study was performed to assess the safety and tolerability of rising single doses of Ac-c(C)arrrar-NH2 (SEQ ID NO:3), administered by IV bolus to patients diagnosed with CKD-BMD and SHPT, and who were receiving hemodialysis. Data were generated to measure changes in patient serum intact PTH (iPTH) and serum calcium as well as bioavailability of the single dose of Ac-c(C)arrrar-NH2 (SEQ ID NO:3). […]

# smi, Cmax (ng/mL)
data = [
    ("CC(=O)N[C@H](CSSC[C@H](N)C(=O)O)C(=O)N[C@H](C)C(=O)N[C@H](CCCNC(=N)N)C(=O)N[C@H](CCCNC(=N)N)C(=O)N[C@H](CCCNC(=N)N)C(=O)N[C@H](C)C(=O)N[C@H](CCCNC(=N)N)C(N)=O", 257),
]
